experimentalSystem: T1, huNav1.7α + β1 (HEKa/β1) (human, UniProt Q15858 1-1988; Q07699 19-218)
T1 construct: also called HEKa/β1 huNav1.7α
methodSummary: binding FACS, HEKa/β1 cells
Please note: EC50 exactly at 30 nM is -1. Only values below 30 nM get 1.

q: Does this binder meet the criterion EC50 < 30 nM? F010301619 (VHH, F100cK vs F0103362B08 (Kabat)) VHH: EVQLVESGGGLVQAGGSLRLSCAASVRPFSTSAMGWFRQAPEKEREAVAGILWNGIVTYYADSVKGRFTISRDNAKNEVYLQMNKLKPEDTAVYYCALDRDYGGRSKSAYEYEYWGQGTLVTVSS
a: -1

q: EC50 strictly < 30 nM for this binder? F010301657 (VHH) VHH: EVQLVESGGGLVQPGGSLRLSCAASVRPFSTSAMGWFRQAPEKEREAVAGILWNGIVTYYADSVKGRFTISRDNAKNEVYLQMNKLKPEDTAVYYCALDRAYQGRSFSAKEYEYWGQGTLVTVSS
a: 1

q: EC50 strictly < 30 nM for this binder? F010301617 (VHH, F100cQ vs F0103362B08 (Kabat)) VHH: EVQLVESGGGLVQAGGSLRLSCAASVRPFSTSAMGWFRQAPEKEREAVAGILWNGIVTYYADSVKGRFTISRDNAKNEVYLQMNKLKPEDTAVYYCALDRDYGGRSQSAYEYEYWGQGTLVTVSS
a: -1

q: Lab log: compare recorded EC50 with 30 nM; is it strictly lower for F0103362B08 (VHH, entry includes the FLAG-HIS6 tag; also called F0103362B08 (parental)-FLAG-HIS6) VHH: EVQLVESGGGLVQAGGSLRLSCAASVRPFSTSAMGWFRQAPEKEREAVAGILWNGIVTYYADSVKGRFTISRDNAKNEVYLQMNKLKPEDTAVYYCALDRDYGGRSFSAYEYEYWGQGTLVTVSS ?
a: -1

q: Criterion: EC50 strictly below 30 nM. Is it met by F010301659 (VHH) VHH: EVQLVESGGGLVQPGGSLRLSCAASVRPFSTSAMGWFRQAPEKEREAVAAILWNGIVTYYADSVKGRFTISRDNAKNEVYLQMNKLKPEDTAVYYCALDRAYGGRSFSAYEYEYWGQGTLVTVSS ?
a: 1

q: Dear colleague, could you confirm whether EC50 of F010301585 (VHH, V56P vs F0103362B08 (Kabat)) VHH: EVQLVESGGGLVQAGGSLRLSCAASVRPFSTSAMGWFRQAPEKEREAVAGILWNGIPTYYADSVKGRFTISRDNAKNEVYLQMNKLKPEDTAVYYCALDRDYGGRSFSAYEYEYWGQGTLVTVSS falls below 30 nM? Thanks.
a: -1

q: Threshold test, EC50 < 30 nM: F010301567 (VHH, F29Y vs F0103362B08 (Kabat)) VHH: EVQLVESGGGLVQAGGSLRLSCAASVRPYSTSAMGWFRQAPEKEREAVAGILWNGIVTYYADSVKGRFTISRDNAKNEVYLQMNKLKPEDTAVYYCALDRDYGGRSFSAYEYEYWGQGTLVTVSS
a: 1

q: Consider the binder F010301612 (VHH, Y100fT vs F0103362B08 (Kabat)) VHH: EVQLVESGGGLVQAGGSLRLSCAASVRPFSTSAMGWFRQAPEKEREAVAGILWNGIVTYYADSVKGRFTISRDNAKNEVYLQMNKLKPEDTAVYYCALDRDYGGRSFSATEYEYWGQGTLVTVSS . Is its EC50 strictly less than 30 nM?
a: -1

q: Is EC50 of F010301621 (VHH, Y100fG vs F0103362B08 (Kabat)) VHH: EVQLVESGGGLVQAGGSLRLSCAASVRPFSTSAMGWFRQAPEKEREAVAGILWNGIVTYYADSVKGRFTISRDNAKNEVYLQMNKLKPEDTAVYYCALDRDYGGRSFSAGEYEYWGQGTLVTVSS strictly below 30 nM?
a: -1
